Assay: Acute toxicity in ig dosed albino mouse measured for 14 days
Type: organism-based
Conditions: in vivo, po
Recorded metric: LD50 at 336 h

State its LD50 at 336 h: `O=C(Cn1c(=O)[nH]c2ccccc2c1=O)NCc1ccc(Cl)cc1Cl` > 5000 mg/kg

* * *

Assay: Toxicity in albino mouse assessed as motor coordination impairment by measuring animal fall-off from rod before 2 mins at 100 mg/kg, ig administered 30 mins prior to test by rotarod test (reference value: 33%)
Assay type: organism-based
Conditions: in vivo, po
Recorded metric: Activity (%)
Answers are plain numbers, in %.

Reference set, count: 2
O=C(Cn1c(=O)[nH]c2ccccc2c1=O)NC1CCCCC1 : 33
O=C(Cn1c(=O)[nH]c2ccccc2c1=O)NCCc1ccccc1 : 50

// for each compound in input: emit Activity
1. O=C(Cn1c(=O)[nH]c2ccccc2c1=O)Nc1ccccc1
2. O=C(Cn1c(=O)[nH]c2ccccc2c1=O)NCc1ccc(Cl)cc1
3. C=CCNC(=O)Cn1c(=O)[nH]c2ccccc2c1=O
4. O=C(Cn1c(=O)[nH]c2ccccc2c1=O)NCc1ccccc1
5. O=C(Cn1c(=O)[nH]c2ccccc2c1=O)NCc1ccc(Cl)cc1Cl
6. CCCNC(=O)Cn1c(=O)[nH]c2ccccc2c1=O
7. O=C(Cn1c(=O)[nH]c2ccccc2c1=O)NCCCc1ccccc1

[33, 67, 50, 33, 50, 50, 33]

State its Activity: `COc1ccccc1CNC(=O)Cn1c(=O)[nH]c2ccccc2c1=O` 67

src = ChEMBL document CHEMBL4359850
